Assay: A CellTox Green Cytotoxicity Assay to monitor cytotoxicity in HEK293 cells - 40 hour (AID 1224871); further: nearly all actives have a fitted effect of over 45% in size
Conditions: CellTox Green fluorescence; series mostly up to 76.8 µM
Results filed as inconclusive are left out. Activity calls are given as the source filed them. The call rests on the fitted dose curve; in most records, active means well fitted activation curve with a large enough effect in the repeat runs; inconclusive means weak or mixed curves; inactive means flat fitted curve, though single readings scatter.
Give your call using only these classes: true = active, false = inactive

Check the results log: what was the call for "c1ccc(C(O[C@@H]2CCCN(CCc3ccc4c(c3)OCO4)C2)c2ccccc2)cc1" ? false

Check the results log: what was the call for "O=c1[nH]c2ccccc2n1CCCN1CCN(C(c2ccccc2)c2ccccc2)CC1" ? false

Check the results log: what was the call for CCCCCCCCCCCC(=O)OCC(C)OC(=O)CCCCC(=O)O (configuration not stated) ? false

Check the results log: what was the call for "O=[N+]([O-])c1ccc(F)c(Cl)c1" ? false

Check the results log: what was the call for "CCC(=O)C(=O)CC" ? false

Check the results log: what was the call for "O=C(O)Cc1ccc2c(c1)C(=O)c1ccccc1CO2" ? false

Check the results log: what was the call for "Clc1ccnc(Cl)n1" ? false

Check the results log: what was the call for "Cc1cccc(C)c1NC(=O)c1ccc(N)cc1" ? false

Check the results log: what was the call for "CCC(=O)OC(=O)CC" ? false

Check the results log: what was the call for "Clc1nnc(Cl)c2ccccc12" ? false

Check the results log: what was the call for "CCCCOC(=O)CO" ? false

Check the results log: what was the call for COC(=O)C1=C(C)NC(C)=C(C(=O)OCCN2CCN(C(c3ccccc3)c3ccccc3)CC2)C1c1cccc([N+](=O)[O-])c1 (configuration not stated) ? false

Check the results log: what was the call for "CC(C)(C)C1CCC(=O)CC1" ? false

Check the results log: what was the call for "CCN(CCN)c1cccc(C)c1" ? false

Check the results log: what was the call for "CCO[Si](OCC)(OCC)OCC" ? false

Check the results log: what was the call for "Cc1ccc(C(C)C)cc2c(C)ccc1-2" ? false

Check the results log: what was the call for "O=c1[nH]c(=O)n([C@H]2C[C@H](O)[C@@H](CO)O2)cc1F" ? false

Check the results log: what was the call for "CC(=O)CC(=O)Nc1ccc(S(=O)(=O)O)cc1" ? false

Check the results log: what was the call for CCCCCCOC(=O)C(C)CC (configuration not stated) ? false

Check the results log: what was the call for "Cc1cccc(C(=O)O)c1O" ? false

Check the results log: what was the call for "CCCC1CCC(=O)CC1" ? false

Check the results log: what was the call for "COc1cc(C)ccc1O" ? false

Check the results log: what was the call for "CCCC(=O)OC(C)(C)Cc1ccccc1" ? true

Check the results log: what was the call for "CCCCCCCC" ? false

Check the results log: what was the call for "Cc1cc(C(C)(C)C)cc(C)c1CC1=NCCN1" ? false

Check the results log: what was the call for "c1ccc(SSc2ccccc2)cc1" ? false

Check the results log: what was the call for "Fc1ccc(C(c2ccc(F)cc2)N2CCNCC2)cc1" ? false

Check the results log: what was the call for "Cc1c(C)c([N+](=O)[O-])c(C(C)(C)C)c([N+](=O)[O-])c1C" ? false

Check the results log: what was the call for "CC(C)=CCC1=C(O)c2ccccc2C(=O)C1=O" ? false

Check the results log: what was the call for "C=CC(=O)Nc1cc2c(Nc3ccc(F)c(Cl)c3)ncnc2cc1OCCCN1CCOCC1" ? true

Check the results log: what was the call for "O=S(=O)(O)c1ccc(Nc2nc(Nc3ccc(/C=C/c4ccc(Nc5nc(Nc6ccc(S(=O)(=O)O)cc6)nc(N(CCO)CCO)n5)cc4S(=O)(=O)O)c(S(=O)(=O)O)c3)nc(N(CCO)CCO)n2)cc1" ? false

Check the results log: what was the call for CCCCC(CC)COC(=O)CCCCC(=O)OCc1ccccc1 (configuration not stated) ? false

Check the results log: what was the call for "CCN(CC)C(=O)c1cc(S(=O)(=O)Cc2ccccc2)c(N2CCC(c3ccccc3)CC2)cc1N(CC)CCN(C)C" ? true

Check the results log: what was the call for C=CC(C)(CCC=C(C)C)OC=O (configuration not stated) ? false

Check the results log: what was the call for "O=S(=O)(O)c1ccc(N=Nc2c(O)ccc3ccccc23)cc1" ? false

Check the results log: what was the call for "CCCNCCC" ? false

Check the results log: what was the call for "CN(C)CCN1CCN(c2cccc(Cl)c2)C1=O" ? false

Check the results log: what was the call for "Cc1c2ccccc2c(C)c2c1ccc1ccccc12" ? true

Check the results log: what was the call for "CCN(CC)c1ccc2c(-c3ccc(S(=O)(=O)O)cc3S(=O)(=O)[O-])c3ccc(=[N+](CC)CC)cc-3oc2c1" ? false

Check the results log: what was the call for "C1CCC(SSC2CCCCC2)CC1" ? false

Check the results log: what was the call for "Cc1ccc(O)c(N)c1" ? false

Check the results log: what was the call for "c1cnccn1" ? false

Check the results log: what was the call for "C#C[C@]1(OC(C)=O)CC[C@H]2[C@@H]3CCC4=C/C(=N/O)CC[C@@H]4[C@H]3CC[C@@]21CC" ? false

Check the results log: what was the call for "[Cl][Pt-2]([Cl])([Cl])[Cl]" ? false

Check the results log: what was the call for "COC(=O)Nc1nc2ccc(C(=O)c3ccccc3)cc2[nH]1" ? false

Check the results log: what was the call for "COC(C)=O" ? false

Check the results log: what was the call for "CC(=O)c1ccc(C(C)=O)cc1" ? false

Check the results log: what was the call for CC(C)(c1cc(Br)c(OCC(Br)CBr)c(Br)c1)c1cc(Br)c(OCC(Br)CBr)c(Br)c1 (configuration not stated) ? false

Check the results log: what was the call for "O=C(O)c1cc(N=Nc2ccc([N+](=O)[O-])cc2)ccc1O" ? false

Check the results log: what was the call for "[Cu+]" ? false

Check the results log: what was the call for "CCCCCCCCCCCCOCCOCCOCCOCCOCCOCCOCCOCCOCCO" ? true

Check the results log: what was the call for "O=C(O)Cc1ccccc1Nc1c(Cl)cccc1Cl" ? false
